System: human hepatoma cell line (HepG2)
Test: MTT in vitro tumor cell inhibition
Assay type: cell-based
Conditions: HepG2, 10^−5 g/ml, 3 days
Excerpt: An effective amount of the above compounds and/or the compositions containing the same used as an active ingredient have an effect on inhibiting the tumor cells. […] The method is used to detect cell viability. […] Particles can be dissolved by dimethyl sulfoxide (DMSO) isopropyl alcohol or 10% acidified SDS (sodium dodecyl sulfate), and a microplate reader is used to measure the OD value at A570 wavelength, which indirectly reflects the number of live cells. […]
Inhibitory rate % for assorted molecules

| molecule | Inhibitory rate % (%) |
| --- | --- |
| O=C(c1cc(O)c(O)cc1O)c1ccc(O)c(O)c1O | 51.57 |
| O=C(c1ccc(O)c(O)c1O)c1ccc(O)c(O)c1O [2,3,4,2′,3′,4′-hexahydroxybenzophenone] | 75.54 |
| O=C(c1ccccc1)c1ccc(O)cc1O [2,4-dihydroxybenzophenone] | 66.74 |
| O=C(c1ccccc1)c1ccc(O)c(O)c1O [2,3,4-trihydroxybenzophenone] | 58.05 |
| O=C(c1ccc(O)c(O)c1)c1cc(O)c(O)c(O)c1O [2,3,3′,4,4′,5-hexahydroxybenzophenone] | 55.49 |

----------
test system: human hepatoma cell line (HepG2); experiment: MTT in vitro tumor cell inhibition; type: cell-based; conditions: HepG2, 10^−4 g/ml, 3 days
Inhibitory rate % for assorted molecules

| molecule | measured_on | Inhibitory rate % (%) |
| --- | --- | --- |
| O=C(c1cc(O)c(O)cc1O)c1ccc(O)c(O)c1O | human hepatoma cell line (HepG2) | 85.12 |
| O=C(c1ccc(O)cc1O)c1ccc(O)cc1O [2,4,2′,4′-tetrahydroxybenzophenone] | human hepatoma cell line (HepG2) | 74.85 |
| O=C(c1ccccc1)c1ccc(O)c(O)c1O [2,3,4-trihydroxybenzophenone] | human hepatoma cell line (HepG2) | 93.40 |
| O=C(c1ccccc1)c1ccc(O)cc1O [2,4-dihydroxybenzophenone] | human hepatoma cell line (HepG2) | 94.78 |
| O=C(c1ccc(O)c(O)c1O)c1ccc(O)c(O)c1O [2,3,4,2′,3′,4′-hexahydroxybenzophenone] | human hepatoma cell line (HepG2) | 86.15 |
| O=C(c1ccc(O)c(O)c1)c1cc(O)c(O)c(O)c1O [2,3,3′,4,4′,5-hexahydroxybenzophenone] | human hepatoma cell line (HepG2) | 77.03 |

----------
Inhibitory rate % for assorted compounds
test system: human colon cancer cell line (LOVO); assay: MTT in vitro tumor cell inhibition; assay type: cell-based; conditions: 10^−4 g/ml, 3 days

| compound | Inhibitory rate % (%) |
| --- | --- |
| O=C(c1ccc(O)cc1O)c1ccc(O)cc1O [2,4,2′,4′-tetrahydroxybenzophenone] | 53.29 |
| O=C(c1ccccc1)c1ccc(O)cc1O [2,4-dihydroxybenzophenone] | 93.80 |
| O=C(c1cc(O)c(O)cc1O)c1ccc(O)c(O)c1O | 51.19 |
| O=C(c1ccccc1)c1ccc(O)c(O)c1O [2,3,4-trihydroxybenzophenone] | 90.02 |
| O=C(c1ccc(O)c(O)c1)c1cc(O)c(O)c(O)c1O [2,3,3′,4,4′,5-hexahydroxybenzophenone] | 75.61 |

----------
Inhibitory rate % for assorted molecules
system: human gastric cancer cell line (MCG804); test: MTT in vitro tumor cell inhibition; format: cell-based; conditions: MCG804, 10^−4 g/ml, 3 days

| molecule | measured_on | Inhibitory rate % |
| --- | --- | --- |
| O=C(c1ccc(O)c(O)c1O)c1ccc(O)c(O)c1O [2,3,4,2′,3′,4′-hexahydroxybenzophenone] | human gastric cancer cell line (MCG804) | 80.93% |
| O=C(c1ccccc1)c1ccc(O)cc1O [2,4-dihydroxybenzophenone] | human gastric cancer cell line (MCG804) | 92.54% |
| O=C(c1cc(O)c(O)cc1O)c1ccc(O)c(O)c1O | human gastric cancer cell line (MCG804) | 83.48% |
| O=C(c1ccccc1)c1ccc(O)c(O)c1O [2,3,4-trihydroxybenzophenone] | human gastric cancer cell line (MCG804) | 87.14% |
